biological target: JNK2 (Homo sapiens, UniProt P45984)
Sequence (P45984 whole entry): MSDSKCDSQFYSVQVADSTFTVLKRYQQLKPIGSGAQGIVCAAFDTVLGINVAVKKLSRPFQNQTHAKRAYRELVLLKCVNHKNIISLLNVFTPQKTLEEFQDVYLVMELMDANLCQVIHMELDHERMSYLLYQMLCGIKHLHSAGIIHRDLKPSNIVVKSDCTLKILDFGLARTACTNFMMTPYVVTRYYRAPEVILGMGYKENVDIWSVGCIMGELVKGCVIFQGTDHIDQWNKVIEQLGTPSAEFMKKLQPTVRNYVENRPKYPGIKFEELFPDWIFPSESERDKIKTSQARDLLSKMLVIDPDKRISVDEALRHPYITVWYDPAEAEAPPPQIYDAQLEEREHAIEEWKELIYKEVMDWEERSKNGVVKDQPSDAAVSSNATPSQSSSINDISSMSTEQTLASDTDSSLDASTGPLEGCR

STRUCTURE STRING: CC(=O)Nc1nccc(-c2ccc3c(/C=C/c4ccc(CN(C)C)cc4)n[nH]c3c2)n1
IC50 (nM): 2700

###

target: TTBK2 (Homo sapiens, UniProt Q6IQ55)
Sequence (Q6IQ55 whole entry): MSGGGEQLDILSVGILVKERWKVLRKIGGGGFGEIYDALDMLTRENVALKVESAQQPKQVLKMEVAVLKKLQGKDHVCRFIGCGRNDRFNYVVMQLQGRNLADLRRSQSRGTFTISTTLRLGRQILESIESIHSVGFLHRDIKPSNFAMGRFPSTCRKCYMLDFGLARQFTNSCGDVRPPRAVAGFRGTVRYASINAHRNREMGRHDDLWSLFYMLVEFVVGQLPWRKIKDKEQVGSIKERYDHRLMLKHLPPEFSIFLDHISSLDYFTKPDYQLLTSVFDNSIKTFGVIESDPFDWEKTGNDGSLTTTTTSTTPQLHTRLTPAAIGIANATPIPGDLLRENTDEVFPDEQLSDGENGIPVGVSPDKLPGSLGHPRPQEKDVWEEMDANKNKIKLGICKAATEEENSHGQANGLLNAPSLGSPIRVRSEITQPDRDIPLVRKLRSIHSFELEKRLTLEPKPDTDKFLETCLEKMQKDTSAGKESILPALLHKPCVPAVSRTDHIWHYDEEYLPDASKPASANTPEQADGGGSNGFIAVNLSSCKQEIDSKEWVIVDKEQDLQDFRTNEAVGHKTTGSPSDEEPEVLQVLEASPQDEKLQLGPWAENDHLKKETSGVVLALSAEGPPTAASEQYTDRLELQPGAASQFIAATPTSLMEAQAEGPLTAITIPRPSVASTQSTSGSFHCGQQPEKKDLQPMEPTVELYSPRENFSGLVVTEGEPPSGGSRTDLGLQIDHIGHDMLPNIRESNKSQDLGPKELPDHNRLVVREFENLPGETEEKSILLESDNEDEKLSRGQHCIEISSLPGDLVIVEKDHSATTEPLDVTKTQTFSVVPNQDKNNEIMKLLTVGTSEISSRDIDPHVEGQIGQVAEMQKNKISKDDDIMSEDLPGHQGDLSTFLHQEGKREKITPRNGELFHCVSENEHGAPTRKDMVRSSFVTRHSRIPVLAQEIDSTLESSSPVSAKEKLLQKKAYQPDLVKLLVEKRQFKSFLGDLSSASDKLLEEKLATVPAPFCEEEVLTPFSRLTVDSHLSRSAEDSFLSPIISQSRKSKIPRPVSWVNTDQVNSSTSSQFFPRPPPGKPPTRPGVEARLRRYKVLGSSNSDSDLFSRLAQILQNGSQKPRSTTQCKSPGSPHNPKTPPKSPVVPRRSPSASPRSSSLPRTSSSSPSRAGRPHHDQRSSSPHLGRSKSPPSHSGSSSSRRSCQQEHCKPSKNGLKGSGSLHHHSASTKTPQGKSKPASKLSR
VALUE TYPE: IC50 (µM)

STRUCTURE STRING: CC(=O)Nc1nccc(-c2ccc3c(/C=C/c4ccc(CN(C)C)cc4)n[nH]c3c2)n1
VALUE TYPE: IC50
QUANTITATIVE RESULT: 8.49

###

biological target: PLK1 (Homo sapiens)
Sequence (P53350 whole entry): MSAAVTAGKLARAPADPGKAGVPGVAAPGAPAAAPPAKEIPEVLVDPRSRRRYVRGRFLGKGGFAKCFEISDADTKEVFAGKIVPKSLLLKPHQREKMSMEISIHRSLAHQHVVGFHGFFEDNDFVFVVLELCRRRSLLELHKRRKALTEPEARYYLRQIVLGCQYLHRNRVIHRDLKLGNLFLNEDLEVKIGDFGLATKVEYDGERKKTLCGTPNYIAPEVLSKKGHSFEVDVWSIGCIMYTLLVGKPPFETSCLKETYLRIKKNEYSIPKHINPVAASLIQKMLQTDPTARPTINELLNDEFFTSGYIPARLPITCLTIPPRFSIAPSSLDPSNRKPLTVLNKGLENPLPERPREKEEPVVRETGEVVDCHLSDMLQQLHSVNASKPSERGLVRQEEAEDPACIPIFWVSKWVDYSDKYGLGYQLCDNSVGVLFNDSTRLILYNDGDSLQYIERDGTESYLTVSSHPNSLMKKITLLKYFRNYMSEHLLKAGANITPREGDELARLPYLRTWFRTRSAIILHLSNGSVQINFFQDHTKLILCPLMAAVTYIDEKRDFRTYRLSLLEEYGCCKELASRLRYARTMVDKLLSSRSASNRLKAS
pKd: −log10 of the molar value.

STRUCTURE STRING: CC(=O)Nc1nccc(-c2ccc3c(/C=C/c4ccc(CN(C)C)cc4)n[nH]c3c2)n1
pKd: < 5.00
